# credit: patent US20240173419A1

Reported DC50 values for a set of molecules
- system.tested: CDK2 (Homo sapiens, UniProt P24941)
- Construct: endogenous in cells; host or cells: MKN1 cells
- protocol.text: CDK2 degradation in MKN1 cells (AlphaLISA)
- Format: cell-based
- test.conditions: 14 h incubation, read-out: CDK2 degradation 14 h: Mean external-Abs DC50

Field: example entries. Status: answers known.
Cc1cc(S(=O)(=O)N2CCN(CCCCOCCCc3ccc4c(c3)n(C)c(=O)n4C3CCC(=O)NC3=O)CC2)ccc1Nc1ncc2ccc(=O)n(C3CCCC3)c2n1 (centres unmarked): 100 to 500 nM
Cc1cc(S(=O)(=O)N2CCC(CN(C)C3CCN(c4cccn5c(N6CCC(=O)NC6=O)cnc45)CC3)CC2)ccc1Nc1ncc2cc(Cl)c(=O)n(C3CCCC3)c2n1: 100 to 500 nM
CC1(O)CCCN(c2nc(Nc3ccc(S(=O)(=O)NC4CCC(CN5CCN(c6ccc(C7CCC(=O)NC7=O)c(F)c6)CC5)CC4)cc3C(F)(F)F)ncc2C(F)(F)F)C1 (centres unmarked): 100 to 500 nM
Cc1cc(S(=N)(=O)C2CC3(CCN(CC4CCN(c5cccc6c5n(C)c(=O)n6C5CCC(=O)NC5=O)CC4)CC3)C2)ccc1Nc1ncc2cc(Cl)c(=O)n(C3CCCC3)c2n1 (centres unmarked): < 100 nM

Pending molecule:
Incoming: Read off the recorded DC50 for Cc1nc(S(=O)(=O)NC2CCC(CN3CCN(c4ccc(C5CCC(=O)NC5=O)c(Cl)c4)CC3)CC2)ccc1Nc1ncc(C(F)(F)F)c(N2CCCC(C)(O)C2)n1 (centres unmarked)
Outgoing: < 100 nM

* * *

- system.tested: CDK2 (Homo sapiens, UniProt P24941)
- Construct: endogenous in cells; host or cells: MKN1 cells
- protocol.text: CDK2 degradation in MKN1 cells (AlphaLISA)
- Format: cell-based
- test.conditions: 14 h incubation
measurement.name: CDK2 degradation 14 h: Average Dmax %

Cc1cc(S(=O)(=O)C2CC3(CCN(CCOC4CN(c5cccc6c5n(C)c(=O)n6C5CCC(=O)NC5=O)C4)CC3)C2)ccc1Nc1ncc(C(F)(F)F)c(N2CCCC(C)(O)C2)n1 (stereo not drawn) [I-854]: B (B (>50% -75%))
Cc1cc(S(=O)(=O)NC2CC(N3CCN(CC4CCN(c5ccc6c(c5F)n(C)c(=O)n6C5CCC(=O)NC5=O)CC4)CC3)C2)ccc1Nc1ncc(C(F)(F)F)c(N2CCCC(C)(O)C2)n1 (stereo not drawn) [I-830]: A (A (>75% o))
Cc1cc(S(=O)(=O)NC2CC(N3CCN(CC4CCN(c5ccc(C6CCC(=O)NC6=O)c(Cl)c5)CC4)CC3)C2)ccc1Nc1ncc(C(F)(F)F)c(N2CCCC(C)(O)C2)n1 (stereo not drawn) [I-714]: A (A (>75% o))
Cc1cc(S(=O)(=O)C2CC3(CCN(CC4CCN(c5ccc6c(c5F)n(C)c(=O)n6C5CCC(=O)NC5=O)CC4)CC3)C2)ccc1Nc1ncc2c(n1)N(C1CCCC1)C(=O)N(C)C2 (stereo not drawn) [I-125]: A (A (>75% o))

Incoming: Look up and report measured CDK2 degradation 14 h: Average Dmax % for this entry: Cc1cc(S(=O)(=O)NC2CCN(CC3(C)CN(c4ccc(C5CCC(=O)NC5=O)c(Cl)c4)C3)CC2)ccc1Nc1ncc(C(F)(F)F)c(N2CCC[C@](C)(O)C2)n1 (stereo partly drawn) [I-910]
Outgoing: B (B (>50% -75%))

* * *

- system.tested: CDK2 (Homo sapiens, UniProt P24941)
- Construct: endogenous in cells; host or cells: MKN1 cells
- protocol.text: CDK2 degradation in MKN1 cells (AlphaLISA)
- Format: cell-based
- test.conditions: 14 h incubation, read-out: CDK2 degradation 14 h: Mean external-Abs DC50
measurement.name: DC50

Worked cases, DC50 given:
CC1CN(CC2CCN(c3ccc(C4CCC(=O)NC4=O)c(F)c3)CC2)CCC1NS(=O)(=O)c1ccc(Nc2ncc(C(F)(F)F)c(N3CCCC(C)(O)C3)n2)c(F)c1 (stereo not drawn) [I-1046]: < 100 nM
Cc1cc(S(=O)(=O)NC2CCC(CN3CCN(c4ccc([C@H]5CCC(=O)NC5=O)c(Cl)c4)CC3)CC2)ccc1Nc1ncc(C(F)(F)F)c(N2CCC[C@](C)(O)C2)n1 (single isomer, unassigned): 100 to 500 nM
Cc1cc(S(=O)(=O)N2CCC(N3CCN(CCCc4ccc5c(c4)n(C)c(=O)n5C4CCC(=O)NC4=O)CC3)CC2)ccc1Nc1ncc2ccc(=O)n(C3CCCC3)c2n1 (stereo not drawn): < 100 nM
Cc1cc(S(=O)(=O)NC2CCC(CN3CCN(c4ccc(C5CCC(=O)NC5=O)cc4C)CC3)CC2)ccc1Nc1ncc(C(F)(F)F)c(N2CCCC(C)(O)C2)n1 (stereo not drawn): < 100 nM
CC(C1CCN(c2ccc(C3CCC(=O)NC3=O)c(F)c2)CC1)N1CCC(NS(=O)(=O)c2ccc(Nc3ncc(C(F)(F)F)c(N4CCCC(C)(O)C4)n3)c(F)c2)C(F)C1 (stereo not drawn): < 100 nM
Cc1cc(S(=O)(=O)NC2CC(N3CCN(CC4CCN(c5cccc6c5n(C)c(=O)n6C5CCC(=O)NC5=O)CC4)CC3)C2)ccc1Nc1ncc(C(F)(F)F)c(N2CCCCC2)n1 (stereo not drawn): < 100 nM

Incoming: Write down measured DC50 (CDK2 (Homo sapiens, UniProt P24941)) for this compound. Cc1cc(S(=O)(=O)C2CCC(N3CC4(CCN(c5cccc6c5n(C)c(=O)n6C5CCC(=O)NC5=O)CC4)C3)CC2)ccc1Nc1ncc2c(n1)N(C1CCCC1)C(=O)C21CC1 (stereo not drawn)
Outgoing: < 100 nM

Incoming: Lab note: CDK2 (Homo sapiens, UniProt P24941) assay, enter DC50 for Cc1cc(S(=O)(=O)C2CC3(CCN(CC4CCN(c5cccc6c5n(C)c(=O)n6C5CCC(=O)NC5=O)CC4)CC3)C2)ccc1Nc1ncc(C(F)(F)F)c(C2CCC(C)(O)CC2)n1 (stereo not drawn) here
Outgoing: < 100 nM

Incoming: Report the value of DC50 obtained on CDK2 (Homo sapiens, UniProt P24941) for Cc1cc(S(=O)(=O)N2CC3(CC(OCCN4CCC(c5ccc6c(c5)n(C)c(=O)n6C5CCC(=O)NC5=O)CC4)C3)C2)ccc1Nc1ncc2cc(Cl)c(=O)n(C3CCCC3)c2n1 (stereo not drawn) .
Outgoing: > 1000 nM

Incoming: Tell me its DC50 on CDK2 (Homo sapiens, UniProt P24941): Cc1cc(S(=O)(=O)N2CCC(CN3CCN(Cc4cccc5c4n(C)c(=O)n5C4CCC(=O)NC4=O)CC3)CC2)ccc1Nc1ncc2ccc(=O)n(C3CCCC3)c2n1 (stereo not drawn)
Outgoing: < 100 nM

Incoming: State, for CDK2 (Homo sapiens, UniProt P24941), measured DC50 of the compound listed here: Cc1cc(S(=O)(=O)NCCO[C@H]2CC[C@H](CN3CCC(c4ccc5c(c4)n(C)c(=O)n5C4CCC(=O)NC4=O)CC3)CC2)ccc1Nc1ncc2cc(Cl)c(=O)n(C3CCCC34CC4)c2n1 (stereo partly drawn)
Outgoing: < 100 nM

Incoming: State measured DC50 of the compound Cc1cc(S(=O)(=O)NC2CC(N3CCN(CC4CCN(c5ccc6c(c5F)n(C)c(=O)n6C5CCC(=O)NC5=O)CC4)CC3)C2)ccc1Nc1ncc2cc(Cl)c(=O)n(C3CCCC3)c2n1 (stereo not drawn) with CDK2 (Homo sapiens, UniProt P24941).
Outgoing: < 100 nM

Incoming: Answer with DC50 of Cc1cc(S(=O)(=O)C2CC3(CCN(CC4CCN(c5ccc(N6CCC(=O)NC6=O)cc5)CC4)CC3)C2)ccc1Nc1ncc2cc(Cl)c(=O)n(C3CCCC3)c2n1 measured for CDK2 (Homo sapiens, UniProt P24941).
Outgoing: 100 to 500 nM

Incoming: Lab note: CDK2 (Homo sapiens, UniProt P24941) assay, enter DC50 for Cc1cc(S(=O)(=O)NC2CCC(CN3CCN(c4ccc(C5CCC(=O)NC5=O)c(Cl)c4)CC3)CC2)ccc1Nc1ncc(C(F)(F)F)c(N2CCC[C@](C)(O)C2)n1 (stereo partly drawn) here
Outgoing: < 100 nM

Incoming: State, for CDK2 (Homo sapiens, UniProt P24941), measured DC50 of the compound listed here: CC1(O)CCCN(c2nc(Nc3ccc(S(=O)(=O)N4CCN(CC5CCC(Oc6cccc(C7CCC(=O)NC7=O)c6)CC5)CC4)cc3C(F)F)ncc2C(F)(F)F)C1 (stereo not drawn)
Outgoing: > 1000 nM

* * *

// values below are reported DC50
- system.tested: CDK2 (Homo sapiens)
- Construct: endogenous in cells; host or cells: MKN1 cells
- protocol.text: CDK2 degradation in MKN1 cells (AlphaLISA)
- Format: cell-based
- test.conditions: 14 h incubation, read-out: CDK2 degradation 14 h: Mean external-Abs DC50

Cc1cc(S(=O)(=O)N2CCC(CN(C)C3CCN(c4cccc5c4n(C)c(=O)n5C4CCC(=O)NC4=O)CC3)CC2)ccc1Nc1ncc2cc(C(F)F)c(=O)n(C3CCCC3)c2n1 (stereo not shown): < 0.1 µM

Incoming: Specify DC50 for Cc1cc(S(=O)(=O)C2CCN(C3CC4(CCN(c5cccc6c5n(C)c(=O)n6C5CCC(=O)NC5=O)CC4)C3)CC2)ccc1Nc1ncc2c(n1)N(C1CCCC1)C(=O)C21CC1 (stereo not shown) and stop.
Outgoing: 0.1 to 0.5 µM

Incoming: Recall and state the measured DC50 for CC1(O)CCCN(c2nc(Nc3ccc(S(=O)(=O)NC4CCC(CN5CCN(c6ccc(C7CCC(=O)NC7=O)c(Cl)c6)CC5)CC4)cc3C(F)F)ncc2C(F)(F)F)C1 (stereo not shown) .
Outgoing: < 0.1 µM

Incoming: Note down DC50 recorded for Cc1cc(S(=O)(=O)NCCO[C@H]2C[C@H](CN3CCC(c4ccc5c(c4)n(C)c(=O)n5C4CCC(=O)NC4=O)CC3)C2)ccc1Nc1ncc2cc(Cl)c(=O)n(C3CCCC3)c2n1 (stereo partly shown)
Outgoing: < 0.1 µM
